assayTarget: T1, recombinant human DLL4 (Cat# 1506-D4/CF, R&D Systems) (human, UniProt Q9NR61 27-529)
T1 construct: Bought protein; also called hDLL4; rHuman DLL4
assayExplanation: ELISA, DLL4 coated, Fab 12.5 nM
outcomeMeasure: ELISA absorbance at 450 nm (A450)
Note: unit A450 is implicit; provide only the numeric part.

Fab VH1-46_IGHD6-6*01_IGHJ1*01 S102A/S103P/S104F/H111F & L6_IGKJ1*01 S28N/S30D/S31H (Fab, V domains shown, Fab made in E. coli: VH on CH1 with His6 and Flag tags (Plasmid A), VL on kappa CL (Plasmid C); also called H: APFF & L: NDH) VH: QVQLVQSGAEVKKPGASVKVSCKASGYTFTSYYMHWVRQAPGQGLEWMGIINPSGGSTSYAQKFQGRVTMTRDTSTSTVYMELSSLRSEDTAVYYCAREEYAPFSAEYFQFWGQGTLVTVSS VL: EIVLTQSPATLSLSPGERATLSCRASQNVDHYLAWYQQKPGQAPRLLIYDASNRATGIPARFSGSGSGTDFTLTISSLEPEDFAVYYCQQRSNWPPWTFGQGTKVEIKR = 0.192
Fab VH1-46_IGHD6-6*01_IGHJ1*01 S102A/S103P/S104F/H111F & L6_IGKJ1*01 S28N/S30D/S31H N53H (Fab, V domains shown, Fab made in E. coli: VH on CH1 with His6 and Flag tags (Plasmid A), VL on kappa CL (Plasmid C); also called H: APFF & L: NDH N53H) VH: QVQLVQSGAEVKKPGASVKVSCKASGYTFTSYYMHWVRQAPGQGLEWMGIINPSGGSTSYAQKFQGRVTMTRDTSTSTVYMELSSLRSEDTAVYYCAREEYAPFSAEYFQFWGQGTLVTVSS VL: EIVLTQSPATLSLSPGERATLSCRASQNVDHYLAWYQQKPGQAPRLLIYDASHRATGIPARFSGSGSGTDFTLTISSLEPEDFAVYYCQQRSNWPPWTFGQGTKVEIKR = 0.167

Kindly review the next binder as well.
Enquiry: # get_value(readout='ELISA absorbance at 450 nm', item= Fab VH1-46_IGHD6-6*01_IGHJ1*01 S102A/S103P/S104F/H111F & L6_IGKJ1*01 S28N/S30D/S31H S52L (Fab, V domains shown, Fab made in E. coli: VH on CH1 with His6 and Flag tags (Plasmid A), VL on kappa CL (Plasmid C); also called H: APFF & L: NDH S52L) VH: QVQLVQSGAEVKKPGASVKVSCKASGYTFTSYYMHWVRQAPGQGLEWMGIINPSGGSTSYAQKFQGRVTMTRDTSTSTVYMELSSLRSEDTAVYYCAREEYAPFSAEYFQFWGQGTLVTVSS VL: EIVLTQSPATLSLSPGERATLSCRASQNVDHYLAWYQQKPGQAPRLLIYDALNRATGIPARFSGSGSGTDFTLTISSLEPEDFAVYYCQQRSNWPPWTFGQGTKVEIKR )
Return: 0.215
